- System: WHIM2 (cells of a triple-negative basal-like breast cancer xenograft)
- method: cell viability of combination (% of vehicle); higher = less cytotoxic
- applied-conditions: 1 µM; 72 h; partner dose: 10 nM
I'd appreciate it if you marked entries criterion met when cell viability of combination is lower than 30 and criterion not met when it is not.

- compound: "CN1CCN(CCOc2cc(OC3CCOCC3)c3c(Nc4c(Cl)ccc5c4OCO5)ncnc3c2)CC1 [Saracatinib (AZD0530)] + CN(C)C/C=C/C(=O)Nc1cc2c(Nc3ccc(F)c(Cl)c3)ncnc2cc1O[C@H]1CCOC1 [Afatinib]"
  assigned-class: "criterion met"
- compound: "Clc1ccc(C(Cn2ccnc2)OCc2c(Cl)cccc2Cl)c(Cl)c1.O=[N+]([O-])O (stereo not drawn) [Isoconazole nitrate] + CN(C)C/C=C/C(=O)Nc1cc2c(Nc3ccc(F)c(Cl)c3)ncnc2cc1O[C@H]1CCOC1 [Afatinib]"
  assigned-class: "criterion not met"
- compound: "C=C1C(=CC=C2CCCC3(C)C2CCC3C(C)CCCC(C)(C)O)CC(O)CC1O (stereo not drawn) [Calcitriol] + CN(C)C/C=C/C(=O)Nc1cc2c(Nc3ccc(F)c(Cl)c3)ncnc2cc1O[C@H]1CCOC1 [Afatinib]"
  assigned-class: "criterion not met"
- compound: "CC(C)CC(NC(=O)C(CCc1ccccc1)NC(=O)CN1CCOCC1)C(=O)NC(Cc1ccccc1)C(=O)NC(CC(C)C)C(=O)C1(C)CO1 (stereo not drawn) [Carfilzomib (PR-171)] + CN(C)C/C=C/C(=O)Nc1cc2c(Nc3ccc(F)c(Cl)c3)ncnc2cc1O[C@H]1CCOC1 [Afatinib]"
  assigned-class: "criterion met"
- compound: "COc1ccc(C[C@H](N)C(=O)N[C@@H]2[C@H](O)[C@H](n3cnc4c(N(C)C)ncnc43)O[C@@H]2CO)cc1.Cl.Cl [Puromycin dihydrochloride] + CN(C)C/C=C/C(=O)Nc1cc2c(Nc3ccc(F)c(Cl)c3)ncnc2cc1O[C@H]1CCOC1 [Afatinib]"
  assigned-class: "criterion not met"
- compound: "C#Cc1cccc(Nc2ncnc3cc(OCCOC)c(OCCOC)cc23)c1 [Erlotinib] + CN(C)C/C=C/C(=O)Nc1cc2c(Nc3ccc(F)c(Cl)c3)ncnc2cc1O[C@H]1CCOC1 [Afatinib]"
  assigned-class: "criterion not met"

====

- Tested on: HCI16 (cells of a triple-negative basal-like breast cancer xenograft);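 note: PDX cells carrying CMV promoter-driven luciferase, viability read as total photon flux per second by IVIS imaging following D-luciferin, vehicle control 0.1% DMSO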
- method: cell viability (% of vehicle); higher = less cytotoxic
- applied-conditions: 10 µM; 72 h
Structures can show the parent of a compound that is named as a salt.
I'd appreciate it if you marked entries T when cell viability is lower than 100 and F when it is not.

- molecule: "CC[C@@H]1/C=C(\\C)C[C@H](C)C[C@H](OC)[C@H]2O[C@@](O)(C(=O)C(=O)N3CCCC[C@H]3C(=O)O[C@H](/C(C)=C/[C@@H]3CC[C@H](Cl)[C@H](OC)C3)[C@H](C)[C@@H](O)CC1=O)[C@H](C)C[C@@H]2OC"
  assigned-class: "T"
- molecule: "CCn1cc(C(=O)O)c(=O)c2cc(F)c(N3CCNCC3)cc21"
  assigned-class: "F"
- molecule: "CCCC(NC(C)C(=O)N1C(C(=O)O)CC2CCCCC21)C(=O)OCC (configuration not stated)"
  assigned-class: "T"
- molecule: "Cl.NC(N)=NC(N)=NCCc1ccccc1 [Phenformin HCl]"
  assigned-class: "T"
- molecule: "CC(CCC(=O)O)C1CCC2C3CCC4CC(O)CCC4(C)C3CCC12C (configuration not stated)"
  assigned-class: "T"
- molecule: "O=C(O)c1ccc2c(c1)nc(Nc1cccc(Cl)c1)c1ccncc12 [CX-4945 (Silmitasertib)]"
  assigned-class: "F"
- molecule: "CN(C)CCCN1c2ccccc2CCc2ccccc21.Cl [Imipramine (hydrochloride)]"
  assigned-class: "F"
- molecule: "CCOC(=O)CCC(=O)OC1C(OC2C(C)C(OC3CC(C)(OC)C(O)C(C)O3)C(C)C(=O)OC(CC)C(C)(O)C(O)C(C)C(=O)C(C)CC2(C)O)OC(C)CC1N(C)C (configuration not stated) [Erythromycin Ethylsuccinate]"
  assigned-class: "F"
- molecule: "Cl.NC12CC3CC(CC(C3)C1)C2 [Amantadine HCl]"
  assigned-class: "F"
- molecule: "CCNC1(C(N)=O)CCN(c2ncnc3c2nc(-c2ccccc2Cl)n3-c2ccc(Cl)cc2)CC1.Cl"
  assigned-class: "T"
- molecule: "Cl.O=S(=O)(c1cccc2cnccc12)N1CCCNCC1 [Fasudil (HA-1077) HCl]"
  assigned-class: "F"
- molecule: "O=c1ccc2ccc(OCCCCN3CCN(c4cccc5sccc45)CC3)cc2[nH]1"
  assigned-class: "F"
- molecule: "CNC(=O)c1ccc(N2C(=S)N(c3ccc(C#N)c(C(F)(F)F)c3)C(=O)C2(C)C)cc1F [MDV3100 (Enzalutamide)]"
  assigned-class: "F"
- molecule: "O=C(C=Cn1cnc(-c2cc(C(F)(F)F)cc(C(F)(F)F)c2)n1)NNc1cnccn1"
  assigned-class: "T"
- molecule: "CN(CCOc1ccc(CC2SC(=O)NC2=O)cc1)c1ccccn1 (configuration not stated)"
  assigned-class: "F"
- molecule: "CCN1CCN(Cc2ccc(Nc3ncc(F)c(-c4cc(F)c5nc(C)n(C(C)C)c5c4)n3)nc2)CC1.CS(=O)(=O)O"
  assigned-class: "F"
- molecule: "CC1C(NC(=O)C(=NOC(C)(C)C(=O)O)c2csc(N)n2)C(=O)N1S(=O)(=O)O (configuration not stated)"
  assigned-class: "F"
- molecule: "Cl.NNc1nncc2ccccc12 [Hydralazine HCl]"
  assigned-class: "F"
- molecule: "O=c1c(-c2ccc(O)cc2)coc2cc(O)ccc12"
  assigned-class: "F"
- molecule: "Cc1cc(C(C)(C)C)cc(C)c1CC1=NCCN1.Cl [Xylometazoline HCl]"
  assigned-class: "F"
- molecule: "CC(C)OC(=O)C(C)(C)Oc1ccc(C(=O)c2ccc(Cl)cc2)cc1 [Fenofibrate]"
  assigned-class: "F"
- molecule: "CN1CCN(c2cc3c(cc2F)c(=O)c(C(=O)O)cn3-c2ccc(F)cc2)CC1 [Difloxacin HCl]"
  assigned-class: "T"
- molecule: "[I-].[K+] [Potassium Iodide]"
  assigned-class: "F"
- molecule: "O=C1CCCC(=O)C1C(=O)c1ccc(C(F)(F)F)cc1[N+](=O)[O-]"
  assigned-class: "F"
- molecule: "Cc1cc(C=CC#N)cc(C)c1Nc1ccnc(Nc2ccc(C#N)cc2)n1"
  assigned-class: "T"
- molecule: "CCN(CC)CC(=O)Nc1c(C)cccc1C"
  assigned-class: "T"
- molecule: "CC(C(=O)[O-])c1cccc(Oc2ccccc2)c1.CC(C(=O)[O-])c1cccc(Oc2ccccc2)c1.[Ca+2] (configuration not stated)"
  assigned-class: "F"
- molecule: "Cc1ccc(Nc2nccc(N(C)c3ccc4c(C)n(C)nc4c3)n2)cc1S(N)(=O)=O.Cl"
  assigned-class: "T"
- molecule: "CC(Cn1cnc2c(N)ncnc21)OCP(=O)(O)O (configuration not stated)"
  assigned-class: "F"
- molecule: "COc1cc(C=CC(=O)CC(=O)C=Cc2ccc(O)c(OC)c2)ccc1O"
  assigned-class: "F"

Values from the supplement of paper PMC6992640
